Tested System: T1, mfGCGR-hFc (cynomolgus monkey (Macaca fascicularis))
T1 construct: also called mfGCGR-N-terminal hFc
T1 sequence (chain, as listed by the source limits assumed): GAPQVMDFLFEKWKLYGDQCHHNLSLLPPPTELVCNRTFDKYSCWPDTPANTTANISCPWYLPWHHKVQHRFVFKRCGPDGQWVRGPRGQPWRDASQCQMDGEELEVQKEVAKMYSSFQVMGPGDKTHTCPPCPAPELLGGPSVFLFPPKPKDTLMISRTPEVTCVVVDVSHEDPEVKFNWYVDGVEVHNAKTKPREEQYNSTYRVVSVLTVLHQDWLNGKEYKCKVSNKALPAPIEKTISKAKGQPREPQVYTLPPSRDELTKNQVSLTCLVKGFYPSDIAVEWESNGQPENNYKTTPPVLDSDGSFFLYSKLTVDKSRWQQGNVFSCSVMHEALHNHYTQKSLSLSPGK
Experimental Protocol: SPR Biacore T100, 37C, mAb captured, antigen flowed
Endpoint Label: koff
Remember to follow the number with its unit.

(Q) Sample H4H1327P (antibody, V domains shown, also called anti-GCGR (hIgG4) antibody designated H4H1327P) VH: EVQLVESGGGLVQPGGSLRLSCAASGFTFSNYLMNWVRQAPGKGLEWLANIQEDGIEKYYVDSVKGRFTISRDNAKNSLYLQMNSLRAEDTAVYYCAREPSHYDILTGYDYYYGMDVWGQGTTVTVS VL: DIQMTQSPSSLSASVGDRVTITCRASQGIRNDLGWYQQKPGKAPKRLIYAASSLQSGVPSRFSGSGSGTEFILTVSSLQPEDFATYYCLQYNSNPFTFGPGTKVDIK — what was its koff?
(A) 7.94e-05 s⁻¹
